System: Histamine
assay.procedure: Atopic dermatitis efficacy test using mast cells (RBL-2H3): histamine released after PMA and A23187, ELISA
Format: cell-based, rat
Set-up: key: •: have statistical significance, determining as effective, compared with the positive control
protocol.conditions: Table 3; 1 μg/mL for 24 hours, then PMA 1 μg/mL, A23187 1 μg/mL 12 hours; vs stimulator only
property: RBL-2H3 (rat) Histamine

>>> recorded_measurement("Z7: ZAG protein-derived peptide, SEQ ID NO. 7: LDRQDPPSVVVTSHQAPGEKKKLKCLAYDF (ZAG protein-derived peptide)")
"•"
>>> recorded_measurement("Z8: ZAG protein-derived peptide, SEQ ID NO. 8: YPGKIDVHWTRAGEVQEPELRGDVLHNGNG (ZAG protein-derived peptide)")
"•"
>>> recorded_measurement("Z10: ZAG protein-derived peptide, SEQ ID NO. 10: GLSKHVEDVPAFQALGSLNDLQFFRYNSKD (ZAG protein-derived peptide)")
"•"

Cited source: patent US11213567B2
